- targetOrSystem: G1 APOL1 (Homo sapiens, UniProt O14791, I384M/S342G)
- Construct: expressed in transfected cells
- Sequence (O14791 28-398 S342G/I384M): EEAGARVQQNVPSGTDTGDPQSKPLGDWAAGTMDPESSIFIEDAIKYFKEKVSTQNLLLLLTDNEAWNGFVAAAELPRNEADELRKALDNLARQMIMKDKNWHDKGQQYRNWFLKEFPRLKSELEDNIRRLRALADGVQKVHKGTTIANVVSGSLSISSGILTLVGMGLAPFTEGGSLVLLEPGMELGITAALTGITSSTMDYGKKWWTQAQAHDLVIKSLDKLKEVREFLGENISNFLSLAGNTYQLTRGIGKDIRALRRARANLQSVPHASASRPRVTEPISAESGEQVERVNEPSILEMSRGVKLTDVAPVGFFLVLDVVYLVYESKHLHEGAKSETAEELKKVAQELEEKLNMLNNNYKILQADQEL
- assaySummary: Acute APOL1 Thallium Assay with inducible stable clones of HEK 293 cells
- Assay type: cell-based
- conditionContext: HEK 293 T-Rex inducible stable clone expressing G1 APOL1; read-out: Thallium Assay (IC50)
experimentalReadout: IC50

input: State, in one line, measured IC50 of O=C1CC(CC(=O)N[C@H]2C[C@H](c3c(-c4ccc(F)cc4)[nH]c4c(F)cc(F)cc43)C2)CC(=O)N1 [Compound 132]
output: > 1000 nM

input: Find the measured IC50 of CN(C)S(=O)(=O)NC[C@H]1C[C@H](c2c(-c3ccc(F)cc3)[nH]c3c(F)cc(F)cc32)C1 [Compound 370] and report it.
output: > 1000 nM

input: Give the reported IC50 for this compound. CCS(=O)(=O)NCC(=O)N[C@H]1C[C@@H](c2c(-c3ccc(F)cc3)[nH]c3c(F)cc(F)cc32)C1 [Compound 43]
output: > 1000 nM

input: Specify reported IC50 for the compound shown: O=C(NC[C@H]1C[C@@H](c2c(-c3ccc(F)cc3)[nH]c3c(F)cc(F)cc32)C1)C1COC1 [Compound 226]
output: 250 to 1000 nM

input: Kindly indicate its recorded IC50. Item: CC(CO)NCC1CC(c2c(-c3ccc(F)cc3)[nH]c3c(F)cc(F)cc23)C1 (mixture of isomers) [Compound 378]
output: 250 to 1000 nM

input: // fetch IC50 given entry O=C(NC[C@H]1C[C@H](c2c(-c3ccc(F)cc3)[nH]c3c(F)cc(F)cc32)C1)C1(O)COC1 [Compound 221]
output: 250 to 1000 nM

input: Given the compound CC(=O)NC1CC(c2c(-c3ccc(F)cc3)[nH]c3c(F)cc(F)cc23)C1 (centres unmarked) [Compound 17] , write its reported IC50.
output: 250 to 1000 nM

input: Return reported IC50. Input compound: Cc1ccc(-c2[nH]c3c(F)cc(F)cc3c2C2CC(N)C2)cc1 (mixture of isomers) [Compound 4]
output: < 250 nM

input: Please report IC50 for the following compound: NC1CC(c2c(-c3ccc(Cl)cc3)[nH]c3c(F)cc(F)cc23)C1 (mixture of isomers) [Compound 10]
output: < 250 nM

input: Retrieve IC50 measured for Cn1ccc(CC(=O)NC[C@H]2C[C@@H](c3c(-c4ccc(F)cc4)[nH]c4c(F)cc(F)cc43)C2)n1 [Compound 278] and print it.
output: > 1000 nM

input: Indicate the recorded IC50 value for this compound: O=C(CC1CS(=O)(=O)C1)NC[C@H]1C[C@H](c2c(-c3ccc(F)cc3)[nH]c3c(F)cc(F)cc32)C1 [Compound 261]
output: > 1000 nM

input: Fill in reported IC50 for this entry: OCC1(NC2CC(c3c(-c4ccc(F)cc4)[nH]c4c(F)cc(F)cc34)C2)CC1 (centres unmarked) [Compound 21]
output: 250 to 1000 nM

input: Give the reported IC50 for this compound. OCCCNCC1CC(c2c(-c3ccc(F)cc3)[nH]c3c(F)cc(F)cc23)C1 (centres unmarked) [Compound 393]
output: > 1000 nM

input: Note down IC50 recorded for CN1CCCC(CC(=O)NC[C@H]2C[C@@H](c3c(-c4ccc(F)cc4)[nH]c4c(F)cc(F)cc43)C2)C1 (some centres unmarked) [Compound 315]
output: > 1000 nM

input: Query IC50 for O=S(=O)(N[C@H]1C[C@@H](c2c(-c3ccc(F)cc3)[nH]c3c(F)cc(F)cc32)C1)c1c[nH]cn1 [Compound 80]
output: > 1000 nM

input: Using known records, supply IC50 for CC(=O)N1CC[C@@H](C(=O)NC[C@H]2C[C@H](c3c(-c4ccc(F)cc4)[nH]c4c(F)cc(F)cc43)C2)C1 [Compound 256]
output: > 1000 nM

input: Consider the compound CC(=O)NC1CCC(c2c(-c3ccc(F)cc3)[nH]c3c(F)cc(F)cc23)CC1 (centres unmarked) [Compound 435] and give its recorded IC50.
output: > 1000 nM

###

- targetOrSystem: G1 APOL1 (Homo sapiens, UniProt O14791, I384M/S342G)
- Construct: expressed in transfected cells
- assaySummary: Acute APOL1 Thallium Assay with inducible stable clones of HEK 293 cells
- Format: cell-based
- conditionContext: HEK 293 T-Rex inducible stable clone expressing G1 APOL1; read-out: Thallium Assay (IC50)
pIC50: −log10 of the molar value.
experimentalReadout: pIC50

input: Quickly give me recorded pIC50 for CN1CCC(CC(=O)NC[C@H]2C[C@@H](c3c(-c4ccc(F)cc4)[nH]c4c(F)cc(F)cc43)C2)CC1
output: < 6.00

input: Provide pIC50 value for the following compound: O=C(CCN1CCCC1=O)NC[C@H]1C[C@@H](c2c(-c3ccc(F)cc3)[nH]c3c(F)cc(F)cc32)C1
output: < 6.00

input: Using known records, supply pIC50 for O=C(CCO)N1CC(Cc2c(-c3ccc(F)cc3)[nH]c3c(F)cc(F)cc23)C1
output: > 6.60

input: Input Fc1ccc(-c2[nH]c3c(F)cc(F)cc3c2C2CC(NCC(F)F)C2)cc1 (stereo not drawn) , output reported pIC50.
output: 6.00 to 6.60

input: Identify the reported pIC50 for the following entry. CC1(C(=O)NC[C@H]2C[C@@H](c3c(-c4ccc(F)cc4)[nH]c4c(F)cc(F)cc43)C2)CCC(=O)NC1 (mixture of isomers)
output: < 6.00

input: Look up pIC50 of Cn1ccc(CC(=O)N[C@H]2C[C@@H](c3c(-c4ccc(F)cc4)[nH]c4c(F)cc(F)cc43)C2)n1 and report it.
output: < 6.00

input: Identify measured pIC50 associated with NCC1(F)CC(c2c(-c3ccc(F)cc3)[nH]c3c(F)cc(F)cc23)C1 (stereo not drawn)
output: 6.00 to 6.60

input: Give the reported pIC50 for this compound. CC(C)(C)OC(=O)NCC(=O)NC[C@H]1C[C@H](c2c(-c3ccc(F)cc3)[nH]c3c(F)cc(F)cc32)C1
output: 6.00 to 6.60

input: Report measured pIC50; entry is CC(C)(C)OC(=O)NC1(C(=O)NC[C@H]2C[C@H](c3c(-c4ccc(F)cc4)[nH]c4c(F)cc(F)cc43)C2)CCC1
output: < 6.00

input: Could you please provide reported pIC50 for O=C(CC1COC1)N[C@H]1C[C@@H](c2c(-c3ccc(F)cc3)[nH]c3c(F)cc(F)cc32)C1 ? Thanks!
output: < 6.00

input: Hello, please tell me recorded pIC50 for this one: NC(=O)CC(=O)N[C@H]1C[C@H](c2c(-c3ccc(F)cc3)[nH]c3c(F)cc(F)cc32)C1
output: 6.00 to 6.60

input: Tell me pIC50 reported for O=C(NC1CC(Cc2c(-c3ccc(F)cc3)[nH]c3c(F)cc(F)cc23)C1)c1ccn[nH]1 (stereo not drawn)
output: < 6.00

###

- targetOrSystem: G1 APOL1 (Homo sapiens, UniProt O14791, I384M/S342G)
- Construct: expressed in transfected cells
- assaySummary: Acute APOL1 Thallium Assay with inducible stable clones of HEK 293 cells
- Assay type: cell-based
- conditionContext: HEK 293 T-Rex inducible stable clone expressing G1 APOL1; read-out: Thallium Assay (IC50)
Please go through the items and note down their IC50.

input: Name the recorded IC50 of the item O=C(CO)NCC1CC(c2c(-c3ccc(F)cc3)[nH]c3c(F)cc(F)cc23)C1 (stereo not drawn) in your answer.
output: 0.25 to 1 µM

input: Supply measured IC50 of N#CCC(=O)NC[C@H]1C[C@@H](c2c(-c3ccc(F)cc3)[nH]c3c(F)cc(F)cc32)C1 in your reply.
output: > 1 µM

input: Respond only with IC50 recorded for NC(=O)C(=O)N1CC(Cc2c(-c3ccc(F)cc3)[nH]c3c(F)cc(F)cc23)C1
output: 0.25 to 1 µM

###

- targetOrSystem: G1 APOL1 (Homo sapiens, UniProt O14791, I384M/S342G)
- Construct: expressed in transfected cells
- assaySummary: Acute APOL1 Thallium Assay with inducible stable clones of HEK 293 cells
- Type: cell-based
- conditionContext: HEK 293 T-Rex inducible stable clone expressing G1 APOL1; read-out: Thallium Assay (IC50)
Kindly supply the reported IC50 values for the records listed here.

input: Fill in IC50 for record N[C@@H](C(=O)NC[C@H]1C[C@H](c2c(-c3ccc(F)cc3)[nH]c3c(F)cc(F)cc32)C1)C1CC1
output: > 1000 nM

input: // Input: C[C@@H](O)CNCC1CC(c2c(-c3ccc(F)cc3)[nH]c3c(F)cc(F)cc23)C1 (stereo partly drawn) . Output its IC50 only.
output: 250 to 1000 nM

input: Please indicate IC50 recorded for C[C@@H](O)C(=O)NC[C@H]1C[C@H](c2c(-c3ccc(F)cc3)[nH]c3c(F)cc(F)cc32)C1
output: 250 to 1000 nM

input: State its IC50: Cc1nc[nH]c1C(=O)NC1CC(Cc2c(-c3ccc(F)cc3)[nH]c3c(F)cc(F)cc23)C1 (stereo not drawn)
output: 250 to 1000 nM

input: Return reported IC50. Input compound: O=C1CC(C(=O)N[C@H]2C[C@@H](c3c(-c4ccc(F)cc4)[nH]c4c(F)cc(F)cc43)C2)CC(=O)N1
output: > 1000 nM

input: Return reported IC50. Input compound: O=S(=O)(N[C@H]1C[C@@H](c2c(-c3ccc(F)cc3)[nH]c3c(F)cc(F)cc32)C1)C1COC1
output: > 1000 nM

input: Provide measured IC50 value, entry: Cc1cc[nH]c1C(=O)NC1CC(Cc2c(-c3ccc(F)cc3)[nH]c3c(F)cc(F)cc23)C1 (stereo not drawn)
output: > 1000 nM

input: Quote IC50 reported for COCC(C)NS(=O)(=O)NC[C@H]1C[C@H](c2c(-c3ccc(F)cc3)[nH]c3c(F)cc(F)cc32)C1 (mixture of isomers) please.
output: > 1000 nM

input: Note IC50 for the compound shown: O=C(CN1CCOCC1)NC[C@H]1C[C@@H](c2c(-c3ccc(F)cc3)[nH]c3c(F)cc(F)cc32)C1
output: > 1000 nM

input: Fill in IC50 for record CC(C)(O)CC(=O)NC1CC(Cc2c(-c3ccc(F)cc3)[nH]c3c(F)cc(F)cc23)C1 (stereo not drawn)
output: 250 to 1000 nM

input: In one line, give reported IC50 of the entry O=C(CCN1CCCCC1)NC[C@H]1C[C@@H](c2c(-c3ccc(F)cc3)[nH]c3c(F)cc(F)cc32)C1 .
output: > 1000 nM

input: Identify the reported IC50 for the following entry. OCC(O)CNCC1CC(c2c(-c3ccc(F)cc3)[nH]c3c(F)cc(F)cc23)C1 (stereo not drawn)
output: 250 to 1000 nM

input: Please report IC50 for the following compound: COCCC(=O)N[C@H]1C[C@H](c2c(-c3ccc(F)cc3)[nH]c3c(F)cc(F)cc32)C1
output: < 250 nM

input: Item O=C(CCN1CCCC1=O)N[C@H]1C[C@@H](c2c(-c3ccc(F)cc3)[nH]c3c(F)cc(F)cc32)C1 : provide IC50
output: > 1000 nM

input: Item CN1CCC(CC(=O)N[C@H]2C[C@@H](c3c(-c4ccc(F)cc4)[nH]c4c(F)cc(F)cc43)C2)C1 (stereo partly drawn) : provide IC50
output: > 1000 nM

input: Could you please provide reported IC50 for C[C@H](O)[C@H](CO)NS(=O)(=O)NC[C@H]1C[C@H](c2c(-c3ccc(F)cc3)[nH]c3c(F)cc(F)cc32)C1 ? Thanks!
output: > 1000 nM

input: Provide IC50 value for the following compound: CC(=O)NS(=O)(=O)NC[C@H]1C[C@H](c2c(-c3ccc(F)cc3)[nH]c3c(F)cc(F)cc32)C1
output: 250 to 1000 nM

input: Look up and report measured IC50 for this entry: NCC(O)CNCC1CC(c2c(-c3ccc(F)cc3)[nH]c3c(F)cc(F)cc23)C1 (stereo not drawn)
output: > 1000 nM

Sourced from patent US12281102B2
